Tested on: HepG2
TEST DESCRIPTION: Cytotoxicity against human HepG2 cells incubated for 24 hrs by MTT assay
Type: cell-based
STATED CONDITIONS: hepg2, 24 h
Kindly state Activity for each of the entries shown.

Find the measured Activity of COc1cc(-c2oc3cc(O)cc(O)c3c(=O)c2O)ccc1O and report it. > 200 µM

Find the measured Activity of O=C1c2c(O)cc(O)cc2O[C@H](c2ccc(O)c(O)c2)[C@H]1O [(+)-TAXIFOLIN] and report it. > 200 µM

Find the measured Activity of O=c1c(O)c(-c2ccc(O)cc2)oc2cc(O)cc(O)c12 and report it. > 200 µM

Find the measured Activity of O=c1c(-c2ccc(O)cc2)coc2cc(O)cc(O)c12 and report it. > 50 µM

Find the measured Activity of Oc1cc(O)c2c(c1)O[C@H](c1ccc(O)c(O)c1)[C@@H](O)C2 and report it. > 250 µM

Find the measured Activity of C[C@@H]1O[C@@H](OC[C@H]2O[C@@H](Oc3c(-c4ccc(O)c(O)c4)oc4cc(O)cc(O)c4c3=O)[C@H](O)[C@@H](O)[C@@H]2O)[C@H](O)[C@H](O)[C@H]1O and report it. > 250 µM

Find the measured Activity of O=c1c(O)c(-c2cc(O)c(O)c(O)c2)oc2cc(O)cc(O)c12 and report it. > 200 µM

Find the measured Activity of O=c1c(O)c(-c2ccccc2)oc2cc(O)cc(O)c12 and report it. > 50 µM

Find the measured Activity of COc1ccc([C@@H]2CC(=O)c3c(O)cc(O)cc3O2)cc1O and report it. > 100 µM

Find the measured Activity of Oc1cc(O)c2c(c1)O[C@H](c1ccc(O)c(O)c1)[C@H](O)C2 [(-)-EPICATECHIN] and report it. > 250 µM

Find the measured Activity of O=c1cc(-c2ccc(O)cc2)oc2cc(O)cc(O)c12 and report it. > 150 µM

Find the measured Activity of O=C1C[C@@H](c2ccc(O)cc2)Oc2cc(O)cc(O)c21 and report it. > 200 µM

---

Kindly state Activity for each of the entries shown.
Test system: HepG2
TEST DESCRIPTION: Cytotoxicity against human HepG2 cells incubated for 24 hrs by MTT assay
Format: cell-based
STATED CONDITIONS: hepg2, 24 h

State measured Activity of the compound O=C(O[C@@H]1Cc2c(O)cc(O)cc2O[C@@H]1c1cc(O)c(O)c(O)c1)c1cc(O)c(O)c(O)c1 [EPIGALOCATECHIN GALLATE] with HepG2. > 200 µM

State measured Activity of the compound O=c1cc(-c2ccc(O)c(O)c2)oc2cc(O)cc(O)c12 [LUTEOLIN] with HepG2. > 20 µM

State measured Activity of the compound O=c1c(-c2ccc(O)cc2)coc2cc(O)ccc12 [DAIDZEIN] with HepG2. > 200 µM

State measured Activity of the compound O=c1c(O)c(-c2ccc(O)c(O)c2)oc2cc(O)cc(O)c12 [QUERCETIN] with HepG2. > 75 µM

State measured Activity of the compound O=c1cc(-c2ccccc2)oc2cc(O)cc(O)c12 [CHRYSIN] with HepG2. > 20 µM
